- assay-remarks: Cell Viability - LYMP2-003 (AID 965);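 also: cells exposed to compounds for 24 h before reading; nearly all actives have a fitted effect of over 50% in size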
- condition-description: LYMP2-003 lymphoblastoid cell viability; series mostly up to 92.2 µM
Results filed as inconclusive are left out. Active and inactive are the calls of the source. Calls follow the shape of the dose curve; as a rule, active = well fitted cell-killing curve with a large enough effect; inconclusive = small, poorly fitted or top-dose-only effect, or effect the other way; inactive = flat fitted curve, though single readings scatter.
Could you please pick one outcome from this set? active, inactive

Example results:
[
  {
    "molecule": "C=CC=O",
    "qualitative-label": "inactive"
  },
  {
    "molecule": "BrCCc1ccccc1",
    "qualitative-label": "inactive"
  },
  {
    "molecule": "CN1CSC(=S)N(C)C1",
    "qualitative-label": "active"
  },
  {
    "molecule": "c1ccc(C2CO2)cc1 (stereo not given)",
    "qualitative-label": "inactive"
  },
  {
    "molecule": "Nc1ccc(Cc2ccc(N)cc2)cc1",
    "qualitative-label": "inactive"
  }
]

Q: Per the assay record, what outcome was assigned to CC(C)(Cl)Cl ?
Ans: inactive

Q: Also NNC(N)=S , if possible.
Ans: inactive

###

- assay-remarks: Stat Signaling Pathway (AID 446);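 also: ME-180 cervical cancer cells given 40 pM IL-6 alongside compound; SIE-controlled beta-lactamase reporter measured as 460/530 nm FRET emission ratio; % is scaled to controls: 0 for no effect and ±100 for the full control effect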
- condition-description: ME-180 (cervical carcinoma) SIE beta-lactamase reporter, IL-6 stimulated, 5 h; at 7.69 µM (top of the series) unless noted
- Experimental: NCGC Assay Overview: The IL-6/STAT signaling pathway was assayed in ME-180 cervical carcinoma cells by a beta-lactamase reporter gene controlled by a STAT Inducible Element (SIE). This reporter is induced by IL-6 at 40 pM AC50 and inhibited by the pan JAK inhibitor, 2-(1,1-Dimethylethyl)-9-fluoro-3,6-dihydro-7H-benz[h]-imidaz[4,5-f]isoquinolin-7-one, at approximately 10 nM AC50. Plated cells were incubated overnight and on the following day, stimulated with 40 pM IL-6 for 5 hrs. […]
Inconclusive results are not listed. The source made the active and inactive calls. Calls come from the whole dose curve; as a rule, active = well fitted curve in either direction with a large enough effect (not every such curve was filed as active); inconclusive = small, poorly fitted or top-dose-only effect, or another doubt; inactive = flat fitted curve, though single readings scatter.
measure-name: activity, negative = inhibition

Look over these answered cases.
[
  {
    "chemical-structure": "Nc1c(C(=O)Nc2ccc([As](=O)(O)O)cc2)cnc2nnnn12",
    "activity, negative = inhibition": "-0.343% (inactive)"
  },
  {
    "chemical-structure": "COC(=O)[C@H](N)CCCN=C(N)N[N+](=O)[O-]",
    "activity, negative = inhibition": "3% [at 38 µM] (inactive)"
  },
  {
    "chemical-structure": "CN(CCC(=O)O)C1=Nc2ccc(Cl)cc2C(c2ccccc2)=[N+]([O-])C1",
    "activity, negative = inhibition": "1.77% (inactive)"
  },
  {
    "chemical-structure": "CC(C)(C)c1cc(C#N)cc(Br)c1OP(=O)(Oc1c(Br)cc(C#N)cc1C(C)(C)C)c1ccccc1",
    "activity, negative = inhibition": "16.6% (inactive)"
  },
  {
    "chemical-structure": "CC1(C)CCC(C)(C)c2c1ccc(O)c2Cc1c(O)ccc2c1C(C)(C)CCC2(C)C",
    "activity, negative = inhibition": "0.741% (inactive)"
  },
  {
    "chemical-structure": "NCCc1ccc(S(=O)(=O)O)cc1[N+](=O)[O-]",
    "activity, negative = inhibition": "1.75% (inactive)"
  },
  {
    "chemical-structure": "CC(C)C[C@H](NP(=O)(O)O[C@@H]1O[C@@H](C)[C@@H](O)[C@@H](O)[C@H]1O)C(=O)N[C@@H](Cc1c[nH]c2ccccc12)C(=O)O",
    "activity, negative = inhibition": "14.9% [at 38 µM] (inactive)"
  },
  {
    "chemical-structure": "CN1CCN(c2ccc([N+](=O)[O-])c3[nH]o[n+](=O)c23)CC1",
    "activity, negative = inhibition": "11.3% (inactive)"
  }
]

Q: Record request: activity, negative = inhibition value, item O=C(O)[C@H]1C2c3ccccc3C(c3ccccc32)[C@@H]1C(=O)NCC1CC1
Ans: 26.5% (inactive)
